targetSystem: HIV reverse transcriptase (Human immunodeficiency virus type 1 group M subtype B, UniProt P04585)
Construct: purchased HT-Biotechnology LTD, Cambridge, UK; host or cells: E. coli
assayOverview: Inhibition of HIV reverse transcriptase, scintillation proximity assay (SPA)
Assay type: biochemical
setupConditions: RT-SPA, 60 min, 37° C.; read-out: Reverse Transcriptase Asaay IC-50 (converted)
List of IC50 values.
Please reply with the bare figure in nM and do not write the unit itself.

molecule	testReadout	measuredNumber
CCCC=C1c2ccccc2NC(=S)C12CCCC2 [Compound 8]	IC50	14.7
CCCC=C1c2ccccc2NC(=S)C12CCC2 [Compound 7]	IC50	19.4
COc1ccc2c(c1)C(=C1CCCC1)C(C)(C)C(=O)N2 [Compound 138]	IC50	225

Next, consider the following molecule.
I am curious: what IC50 value has been reported for CCCC=C1c2cc(OC)ccc2NC(=S)C1(C)C [Compound 42] ?
9.44
